B1: CDC14A (parent)
chain: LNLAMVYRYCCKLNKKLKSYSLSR

Variants of: B1
Assay: protein stability index of a GFP-peptide fusion (GPS, HEK-293T) (PSI 1-6); higher = more stable;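 note: lentivirally expressed fusions sorted by FACS into six bins by GFP to DsRed ratio, PSI derived from sequencing read proportions per bin multiplied by bin number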
Conditions: c terminus: a fixed tail appended
readout-kind: protein stability index
When you answer, write just the number.

The variant listed as LNIAMVYRYCCKLNKKLKSYSLSR [L3I] shows protein stability index equal to 2.02

The variant listed as LNLAMVKRYCCKLNKKLKSYSLSR [Y7K] shows protein stability index equal to 2.13

The variant listed as RNLAMVYRYCCKLNKKLKSYSLSR [L1R] shows protein stability index equal to 2.77

The variant listed as LNLAMVYRYCCKLNKKLKSYPLSR [S21P] shows protein stability index equal to 3.64

The variant listed as LNLAMVYRYCHKLNKKLKSYSLSR [C11H] shows protein stability index equal to 3.15

The variant listed as LNEAMVYRYCCKLNKKLKSYSLSR [L3E] shows protein stability index equal to 2.32

The variant listed as LNLAMVYRYCCKLNKKLKSYSLTR [S23T] shows protein stability index equal to 3.09

The variant listed as LNLAMVYRYCCKLNKKLKSYSLSY [R24Y] shows protein stability index equal to 3.41

The variant listed as LNLAMVYRYCCFLNKKLKSYSLSR [K12F] shows protein stability index equal to 2.18

The variant listed as LNLAMYYRYCCKLNKKLKSYSLSR [V6Y] shows protein stability index equal to 2.45

The variant listed as LNLAMVYRYCCKLNKTLKSYSLSR [K16T] shows protein stability index equal to 3.67
